Data credit: PubChem BioAssay AID2501

ASSAY_SUMMARY: counter assay for TAg ATPase ADP read-out – biochemical, ADP-Hunter, fluorescence, counter-screen (AID 2501);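 also: purified T antigen ATPase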
CONDITIONS_USED: series mostly up to 100 µM
Screen size: about 2,200 compounds; about 1,200 (55%) were called active. The limit is not given here; nearly all actives have IC50 up to about 92 µM. The set was probably picked from earlier hits. Some of the results follow.
Response enum: y for active, n for inactive

Worked set:
1) Cc1ccc2cn[nH]c2c1N | y
2) CC(/C=N/n1c(-c2ccncc2)n[nH]c1=S)=C\c1ccco1 | y
3) COc1ccccc1CNC(=O)COC(=O)c1c(C)nn(-c2ccccc2)c1Cl | n
4) O=C(CS(=O)(=O)c1ccccc1)c1cc2cc(F)ccc2oc1=O | n
5) O=C(O)c1ccc(-n2c(-c3cc(-c4ccco4)[nH]n3)n[nH]c2=S)cc1 | n
6) O=C(c1ccc([N+](=O)[O-])cc1)N1CCN(c2cccc3[nH]ccc23)CC1 | y

What outcome does the record of this test show for CN(C)c1ccc(N2C(=O)CC(Nc3ccc(N4CCOCC4)cc3)C2=O)cc1 (configuration not stated) ?
y

What outcome does the record of this test show for Cc1ccc(C2=NOC(=O)/C2=C\c2ccccc2)cc1 ?
n

What outcome does the record of this test show for ClCC1=Nc2cccc3cccc(c23)N1 ?
y

What outcome does the record of this test show for CC(=O)Nc1ccc(S(=O)(=O)N2CCN(Cc3ccccc3[N+](=O)[O-])CC2)cc1 ?
n

What outcome does the record of this test show for O=C(O)CC(C(=O)O)N1C(=O)/C(=C/C=C/c2ccco2)SC1=S (configuration not stated) ?
n

What outcome does the record of this test show for COc1ccccc1CNC(=O)c1ccc(CS(=O)Cc2cccc(Cl)c2)o1 (configuration not stated) ?
y

What outcome does the record of this test show for O=C(CSc1nc2ccccc2o1)N/N=C/c1ccc(O)c(O)c1 ?
y

What outcome does the record of this test show for COc1cccc(CNC(=O)Cc2ccc(Br)cc2)c1 ?
n

What outcome does the record of this test show for CC(C)(C)CC(=O)NC(=S)Nc1ccccc1[N+](=O)[O-] ?
n

* * *

ASSAY_SUMMARY: counter assay for TAg ATPase ADP read-out – biochemical, ADP-Hunter, fluorescence, counter-screen (AID 2501);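 also: purified T antigen ATPase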
CONDITIONS_USED: series mostly up to 100 µM
In all, about 2,200 compounds went through this assay and about 1,200 (55%) were called active. The limit is not given here; nearly all actives have IC50 up to about 92 µM. So high a share suggests a set chosen from earlier hits. Some of the results follow.
Response enum: active, inactive

Worked set:
1. O=C(O)C(Cc1ccccc1)N1C(=O)/C(=C/C=C/c2ccco2)SC1=S (stereo not given) | inactive
2. O=C(CCN1C(=O)C2CCCCC2C1=O)N1CCN(S(=O)(=O)c2cccc(F)c2)CC1 (stereo not given) | inactive
3. N#C/C(=C/c1ccc(O)c(O)c1)c1nc2ccccc2[nH]1 | active

What outcome does the record of this test show for O=C(NCc1ccco1)C1CC(=O)N(c2ccc(O)cc2)C1 (stereo not given) ?
active

* * *

ASSAY_SUMMARY: counter assay for TAg ATPase ADP read-out – biochemical, ADP-Hunter, fluorescence, counter-screen (AID 2501);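 also: purified T antigen ATPase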
CONDITIONS_USED: series mostly up to 100 µM
In all, about 2,200 compounds went through this assay and about 1,200 (55%) were called active. No cut-off is given here; in the data, nearly all actives have IC50 up to about 92 µM. The set was probably picked from earlier hits. The list shows a part of the results.
Response enum: 1 for active, -1 for inactive

Worked set:
1. Cc1ccccc1-n1sc2cc(F)ccc2c1=O | 1
2. O=C(COC(=O)C1CC1)c1c[nH]c2ccccc12 | -1
3. CC(C)(C)c1nnc(NC(=O)CN2C(=O)C3C4C=CC(C4)C3C2=O)s1 (stereo not drawn) | -1
4. COc1cc(CNc2ccc(N3CCOCC3)cc2)ccc1OCC(=O)NC(C)(C)C | 1
5. COc1ccccc1Nc1nc(C)cs1 | -1
6. COc1cc(SC)ccc1C(=O)N1CCN(c2ccc(O)cc2)CC1 | 1
7. CCOc1cccc(=O)c2c(C)n(-c3ccc(C(=O)O)cc3)c(C)c12 | -1
8. O=C(O)CC1(Cc2nc(-c3cccs3)no2)CCCC1 | -1

What outcome does the record of this test show for COc1cc(/C=N/NC(=O)CC2C(=O)NN=C2C)ccc1O (stereo not drawn) ?
1

What outcome does the record of this test show for CC12CCC(C/C1=N/O)C2(C)C (stereo not drawn) ?
-1

What outcome does the record of this test show for CCOc1ccccc1NC(=O)COC(=O)c1cccc(-c2ccc(OC(C)=O)cc2)c1 ?
-1
